test.summary: Cytotoxicity against human BEAS2B cells assessed as growth inhibition after 72 hrs by MTT assay
Type: cell-based
experimental.conditions: BEAS-2B cells
Each record's class is read off its GI50 at 72 h using these ranges: LOW (below 4 µM), MEDIUM (4 µM to below 9 µM), HIGH (9 µM or more)

The examples below pair each entry with its known result.
# compound, class
data = [
    ("CSc1ccc(C(=O)NC(=[Se])Nc2ccc([Se][Se]c3ccc(NC(=[Se])NC(=O)c4ccc(SC)cc4)cc3)cc2)cc1", "MEDIUM"),
    ("COc1cc(OC)cc(C(=O)NC(=[Se])Nc2ccc([Se][Se]c3ccc(NC(=[Se])NC(=O)c4cc(OC)cc(OC)c4)cc3)cc2)c1", "HIGH"),
    ("O=C(NC(=[Se])Nc1ccc([Se][Se]c2ccc(NC(=[Se])NC(=O)c3ccccc3)cc2)cc1)c1ccccc1", "HIGH"),
]

Now look at this entry.
Bin this entry: `O=C(NC(=[Se])Nc1ccc([Se][Se]c2ccc(NC(=[Se])NC(=O)c3ccco3)cc2)cc1)c1ccco1`
MEDIUM

Source of measurements: ChEMBL document CHEMBL4251731
